Tested on: LOX IMVI melanoma
assay.text: NCI tumour cell line growth inhibition, 48 h
Record form. Attribute: TGI. Fill in for each entry.

Quick one: TGI of Cc1cc(C)c(C(=O)OC(c2ccccc2)C(c2ccccc2)N2CCOCC2)c(C)c1 (centres undefined) ?
> 100 µM

Again, but for CC12ON=C(c3ccccc3)N1C=CN1C(c3ccccc3)=NOC12 (centres undefined)
> 100 µM

Consider next the compound CN1CCN(c2ccc3[nH]c(C4=C(O)c5nc(CO)n(C)c5C(=O)C4=O)nc3n2)CC1 in the same way.
> 100 µM

Try the compound O=C1OC(CN2CCN(c3ccccc3)CC2)CN1C(=S)Nc1ccccc1 (centres undefined)
> 100 µM

Try this compound next: Oc1ccc2ccccc2c1N=Nc1ccccc1
> 100 µM

Quick one: COC(=O)CCCCC/C(=C\C(=O)C(Cl)(Cl)Cl)OC
44.9 µM

Another compound: C[C@@H]1C(O)CC[C@H](C)C12CC=CC2=O (some centres undefined)
> 100 µM

And then COc1ccc(C2S/C(=C\c3ccc(OC)cc3OC)C(=O)N2NC(=O)Cc2ccccc2)cc1 (centres undefined) , what is it?
> 100 µM

Record: COc1cc(C2C(C#N)=C(N)OC3=C2C(=O)c2ccccc2C3=O)cc(OC)c1OC (centres undefined)
14 µM

Continue with CC(=O)c1cn(-c2ccc(Cl)cc2)c(=O)c2c(N)n[nH]c12
> 100 µM

Now consider CCC1(OC(C)=O)C(=O)OCc2c1cc1n(c2=O)Cc2cc3ccccc3nc2-1 (centres undefined) and answer again.
13.5 µM

# repeat for CSCCC(NC(c1ccccc1)c1ccccc1)[P+](=O)O (centres undefined)
> 100 µM

Note, next up: NC(=O)N(O)c1cccc(Br)c1
> 100 µM

Next record, please: CCc1cccc(C)c1NC(=O)NS(=O)(=O)c1ccc(C)cc1
> 100 µM

The measurements presented in this section are drawn from PubChem BioAssay (NCI).
